- Tested on: 843126-344-R-J1-PDC complex spheroid viability
- PROCEDURE_SUMMARY: Anticancer human tumor 843126-344-R-J1-PDC patient-derived melanoma cell line growth inhibition [POLQ]
- STUDY_CONDITIONS: second compound 0.316 µM; first compound 3.16 µM; active compounds read low
PROPERTY_MEASURED: viability, T/C (%)
API: value field is a number in %; no unit string.

Look up viability, T/C: CNCc1ccc(-c2[nH]c3cc(F)cc4c3c2CCNC4=O)cc1 + COC1C(OC(N)=O)C(O)C(Oc2ccc3c(O)c(NC(=O)c4ccc(O)c(CC=C(C)C)c4)c(=O)oc3c2C)OC1(C)C
108

Please report the recorded viability, T/C for CCc1cc2c(N3CCc4c(cc(Cn5ccnc5)cc4-c4cn(C)nc4C(F)(F)F)C3=O)ccnc2c(OC)n1 + Cc1cccc(N(C)C(=O)C2C(O)CCN2c2nc(C)cc(C(F)(F)F)c2C#N)c1 .
69

Value lookup for viability, T/C; key = COc1cc2cc(C(=O)CCC(=O)O)sc2cc1OC + Cc1cccc(N(C)C(=O)C2C(O)CCN2c2nc(C)cc(C(F)(F)F)c2C#N)c1
88.8

Name the recorded viability, T/C for COc1cc2cc(C(=O)CCC(=O)O)sc2cc1OC + Nc1ccc(C#CCN(C(=O)Cc2ncc(C(F)(F)F)cc2C(F)(F)F)c2ccc(F)cc2)nn1 .
108

###

- Tested on: 843126-344-R-J1-PDC complex spheroid viability
- PROCEDURE_SUMMARY: Anticancer human tumor 843126-344-R-J1-PDC cell line growth inhibition [POLQ];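 note: spheroids exposed to drugs for seven days before readout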
- STUDY_CONDITIONS: second compound 10 µM; first compound 1 µM; active compounds read low
PROPERTY_MEASURED: viability, T/C

Value wanted: viability, T/C (843126-344-R-J1-PDC complex spheroid viability) of entry COc1cccc2c1C(=O)c1c(O)c3c(c(O)c1C2=O)CC(O)(C(=O)CO)CC3OC1CC(N)C(O)C(C)O1 (stereo unspecified) + COC1C(OC(N)=O)C(O)C(Oc2ccc3c(O)c(NC(=O)c4ccc(O)c(CC=C(C)C)c4)c(=O)oc3c2C)OC1(C)C
15%

Find viability, T/C (843126-344-R-J1-PDC complex spheroid viability) for the entry CC1COCCN1c1cc(C2(O)CC3CCC(C2)O3)c2cnn(-c3ccn[nH]3)c2n1 (stereo unspecified) + COC1C(OC(N)=O)C(O)C(Oc2ccc3c(O)c(NC(=O)c4ccc(O)c(CC=C(C)C)c4)c(=O)oc3c2C)OC1(C)C
41.6%

Request - read-out viability, T/C | tested on 843126-344-R-J1-PDC complex spheroid viability | compound O=C(Nc1ccc(O)c(NS(=O)(=O)c2ccc(F)cc2)c1)c1ccc(-c2ccccc2)cc1 + Cc1cccc(N(C)C(=O)C2C(O)CCN2c2nc(C)cc(C(F)(F)F)c2C#N)c1
85.5%

# query: viability, T/C | item O=C(c1cc(Cc2n[nH]c(=O)c3ccccc23)ccc1F)N1CCN(C(=O)C2CC2)CC1 + Nc1ccc(C#CCN(C(=O)Cc2ncc(C(F)(F)F)cc2C(F)(F)F)c2ccc(F)cc2)nn1 | system: 843126-344-R-J1-PDC complex spheroid viability
92.7%

Give recorded viability, T/C with 843126-344-R-J1-PDC complex spheroid viability for the following compound: COc1cc(C2c3cc4c(cc3C(OC3OC5COC(C)OC5C(O)C3O)C3COC(=O)C23)OCO4)cc(OC)c1O (stereo unspecified) + COC1C(OC(N)=O)C(O)C(Oc2ccc3c(O)c(NC(=O)c4ccc(O)c(CC=C(C)C)c4)c(=O)oc3c2C)OC1(C)C
85.1%

Form: Entry = CC1COCCN1c1cc(-c2ccnn2C)c2ccnc(-c3ccn[nH]3)c2n1 (stereo unspecified) + COC1C(OC(N)=O)C(O)C(Oc2ccc3c(O)c(NC(=O)c4ccc(O)c(CC=C(C)C)c4)c(=O)oc3c2C)OC1(C)C | System = 843126-344-R-J1-PDC complex spheroid viability | viability, T/C = ____
46.1%

Test system 843126-344-R-J1-PDC complex spheroid viability; read-out viability, T/C; what value for CCc1cc2c(N3CCc4c(cc(Cn5ccnc5)cc4-c4cn(C)nc4C(F)(F)F)C3=O)ccnc2c(OC)n1 + Nc1ccc(C#CCN(C(=O)Cc2ncc(C(F)(F)F)cc2C(F)(F)F)c2ccc(F)cc2)nn1 ?
73.5%

Reported viability, T/C for 843126-344-R-J1-PDC complex spheroid viability, given CCc1c2c(nc3ccc(O)cc13)-c1cc3c(c(=O)n1C2)COC(=O)[C@]3(O)CC + Cc1cccc(N(C)C(=O)C2C(O)CCN2c2nc(C)cc(C(F)(F)F)c2C#N)c1 ?
47.8%

Form entry - test system: 843126-344-R-J1-PDC complex spheroid viability; read-out: viability, T/C; compound: COc1ccc([C@@H](O)c2cc(-c3ncnc4cc(N5CCOCC5)ccc34)c(F)cc2Cl)nn1 + COC1C(OC(N)=O)C(O)C(Oc2ccc3c(O)c(NC(=O)c4ccc(O)c(CC=C(C)C)c4)c(=O)oc3c2C)OC1(C)C
76%

Value wanted: viability, T/C (843126-344-R-J1-PDC complex spheroid viability) of entry O=C(c1cc(Cc2n[nH]c(=O)c3ccccc23)ccc1F)N1CCN(C(=O)C2CC2)CC1 + COC1C(OC(N)=O)C(O)C(Oc2ccc3c(O)c(NC(=O)c4ccc(O)c(CC=C(C)C)c4)c(=O)oc3c2C)OC1(C)C
80.6%

For the record CC1COCCN1c1cc(C2(S(C)(=N)=O)CC2)nc(-c2ccnc3[nH]ccc23)n1 (stereo unspecified) + Cc1cccc(N(C)C(=O)C2C(O)CCN2c2nc(C)cc(C(F)(F)F)c2C#N)c1 , what value of viability, T/C is listed for 843126-344-R-J1-PDC complex spheroid viability?
83.3%

Notebook entry, 843126-344-R-J1-PDC complex spheroid viability assay: viability, T/C of CC1COCCN1c1cc(-c2ccnn2C)c2ccnc(-c3ccn[nH]3)c2n1 (stereo unspecified) + Nc1ccc(C#CCN(C(=O)Cc2ncc(C(F)(F)F)cc2C(F)(F)F)c2ccc(F)cc2)nn1 = ?
43.9%

Missing value: viability, T/C, 843126-344-R-J1-PDC complex spheroid viability, entry Nc1ccn(C2OC(CO)C(O)C2(F)F)c(=O)n1 (stereo unspecified) + Cc1cccc(N(C)C(=O)C2C(O)CCN2c2nc(C)cc(C(F)(F)F)c2C#N)c1 . Fill in?
45.1%

What value of viability, T/C on 843126-344-R-J1-PDC complex spheroid viability does CC1COCCN1c1cc(C2(O)CC3CCC(C2)O3)c2cnn(-c3ccn[nH]3)c2n1 (stereo unspecified) + Cc1cccc(N(C)C(=O)C2C(O)CCN2c2nc(C)cc(C(F)(F)F)c2C#N)c1 have?
45.2%

Please provide the recorded viability, T/C for COc1cc2cc(C(=O)CCC(=O)O)sc2cc1OC + Cc1cccc(N(C)C(=O)C2C(O)CCN2c2nc(C)cc(C(F)(F)F)c2C#N)c1 , tested on 843126-344-R-J1-PDC complex spheroid viability.
89.7%

For the record COc1cc(C2c3cc4c(cc3C(OC3OC5COC(C)OC5C(O)C3O)C3COC(=O)C23)OCO4)cc(OC)c1O (stereo unspecified) + Nc1ccc(C#CCN(C(=O)Cc2ncc(C(F)(F)F)cc2C(F)(F)F)c2ccc(F)cc2)nn1 , what value of viability, T/C is listed for 843126-344-R-J1-PDC complex spheroid viability?
75.4%
